# credit: PubChem BioAssay (NCI)

tested on: CCRF-CEM leukemia; experiment: NCI-60 one-dose screen, 48 h; details: 10 µM unless noted
This is part of a sample that, as a whole, favours compounds with a hit. Of some 83,000 tested, about 20% had one in any assay. Activity calls are given as the source filed them. The calls were made as follows: active = growth percent below 10; inactive = the rest.
Response enum: active, inactive

Observe how each entry below is paired with its result.
COMPOUND: COc1ccc2c(c1)C(=O)c1c-2c(OCCCN(C)C)nc2cc(Br)ccc12
CLASS ASSIGNMENT: active
--
COMPOUND: Nc1c2ccccc2nc2ccccc12 (tested in a mixture with another compound)
CLASS ASSIGNMENT: inactive
--
COMPOUND: COc1ccc2c(c1)C(=O)/C(=C/c1ccc([N+](=O)[O-])s1)O2
CLASS ASSIGNMENT: active
--
COMPOUND: Cc1cc(Cl)ccc1Nc1nc(C(F)(F)F)ccc1C(=O)NCC(=O)N/N=C/c1c(Cl)cccc1Cl
CLASS ASSIGNMENT: inactive
--
COMPOUND: OCc1nnn(-c2ccccc2)c1CO
CLASS ASSIGNMENT: inactive

// param item: `COc1cc(Oc2cc(-c3cccnc3)ccc2NC(=O)Nc2ccc(F)cc2F)cc(OC)c1OC` ; yields the recorded call inactive

Identify the outcome logged in this assay for the compound shown: `CCOC(=O)c1c(C)c(C(=O)OCC)n(C)c1C` inactive

Dear all, I need the recorded test outcome for `CCN(CC)CCOc1ccc(C2=C(c3ccccc3)CCc3cc(OC)ccc32)cc1` , thank you. active

Please indicate how the test categorized `N#Cc1c(N)[nH]c(S)c1C#N` . inactive

Would you mind telling me which call this test gave N#Cc1c2ccccc2c2n1-c1ccccc1OC(c1ccccc1)C2=O (stereo not given) ? active

---

tested on: SK-MEL-28 melanoma; test: NCI-60 one-dose screen, 48 h; details: 10 µM unless noted
The panel holds about 83,000 compounds, 20% with a hit somewhere; the sample as a whole holds those more often. Active and inactive are the calls of the source. Rule for the calls: active = growth percent below 10; inactive = the rest.
Result category, one only: active, inactive

MOLECULE: N#Cc1c(N2CCOCC2)nc2sc3cc(Cl)ccc3n2c1=N
TARGET: SK-MEL-28 melanoma
CLASS ASSIGNMENT: inactive

For CC1SC(c2c(Cl)cccc2Cl)N(NC(=O)c2[nH]c3ccc(F)cc3c2-c2ccccc2)C1=O (configuration not stated) , what call appears in the results of this test? inactive

Hey, what did the test say about `NNC(=O)NO` ? inactive

Could you kindly confirm the outcome this assay logged for `Clc1ccccc1[C@@H]1C[C@@H]2Cc3cc(Br)c4ccccc4c3N1O2` ? inactive

Please let me know the test result on file for `COc1ccc2c(c1)C(=O)c1c-2c(OCCCN(C)C)nc2cc(Br)ccc12` . active

Lab log entry: `COC(=O)[C@]12CC[C@@H](C)[C@H](C)[C@@H]1C1=CC[C@@H]3[C@@]4(C)C=C(O)C(=O)[C@@]5(C)COC(=C54)C[C@@]3(C)[C@]1(C)CC2` — outcome as called in the assay? active

What is the recorded call for this molecule in the test? `COc1ccc2nc(-c3ccc(-n4cncc4-c4ccc(OC)c(N)c4)cc3)sc2c1` inactive

Could you kindly confirm the outcome this assay logged for `C[C@]12CC[C@@H]3c4ccc(O)c([N+](=O)[O-])c4CC[C@H]3[C@@H]1CC[C@@H]2NS(=O)(=O)c1ccc(C(F)(F)F)cc1` ? inactive

Assay result, entry `CCCCCCCC/C=C/CCCCCCCC1=NC(C)(C)CN1CCO` — outcome? active

Any idea what this test logged for `Cc1cccc(Cl)c1NC(=O)c1ccc2nc(NC(=O)NC3CC(C)(C)NC(C)(C)C3)sc2c1` ? inactive

# lookup: test call for `CC/C(=C\c1ccc(N(C)C)cc1)c1nc2ccccc2c(=O)[nH]1` inactive

Hello, I am checking results. What call was entered for `COC(=O)CCC1=C(C)/C(=C/c2[nH]c(-c3ccc[nH]3)cc2OC)N=C1C` ? active

Which outcome was entered for the molecule `COc1ccc(CCN2CCCN3C2=Nc2ccccc2S3(=O)=O)cc1` in this test? inactive

What classification did CSc1ncc2ncn(C3OC(CO)C(O)C3O)c2n1 (configuration not stated) end up with in this test? inactive

Fill in: this test's call for `O=C(OC[C@H]1O[C@H](OC(=O)c2cc(O)c(O)c(OC(=O)c3cc(O)c(O)c(O)c3)c2)[C@H](OC(=O)c2cc(O)c(O)c(OC(=O)c3cc(O)c(O)c(O)c3)c2)[C@@H](OC(=O)c2cc(O)c(O)c(OC(=O)c3cc(O)c(O)c(O)c3)c2)[C@@H]1OC(=O)c1cc(O)c(O)c(OC(=O)c2cc(O)c(O)c(O)c2)c1)c1cc(O)c(O)c(OC(=O)c2cc(O)c(O)c(O)c2)c1` is ___ inactive

Any idea what this test logged for `COc1ccc(Cn2cc3c(c2-c2ccccc2)CCc2cncnc2-3)cc1` ? inactive

Answer briefly: the call reported for CC/C=C\C=C/C(=O)N/C=C/CC1Cc2cccc(O)c2C(=O)O1 (configuration not stated) in this assay. inactive

---

test system: SW-620 colon; assay: NCI-60 one-dose screen, 48 h; conditions: 10 µM unless noted
This is part of a sample that, as a whole, favours compounds with a hit. Of some 83,000 tested, about 20% had one in any assay. Calls of active or inactive are those of the source. The calls were made as follows: active = growth percent below 10; inactive = the rest.
The reply should be one of these categories: active, inactive

The examples below pair each entry with its known result.
CHEMICAL SMILES: Clc1ccccc1[C@@H]1C[C@@H]2Cc3cc(Br)c4ccccc4c3N1O2
TARGET: SW-620 colon
CLASS ASSIGNMENT: inactive

CHEMICAL SMILES: CC(C)c1nc(N(C)S(C)(=O)=O)nc(-c2ccc(F)cc2)c1/C=C/[C@@H](O)C[C@@H](O)CC(=O)O
TARGET: SW-620 colon
CLASS ASSIGNMENT: inactive

CHEMICAL SMILES: COC(=O)c1ccc2c(c1)nc(-c1ccc(O)c(OC)c1)n2-c1cc(C(C)(C)C)[nH]n1
TARGET: SW-620 colon
CLASS ASSIGNMENT: inactive

Answer briefly: the call reported for `NC(N)=N/N=C(/c1ccccc1)c1ccc(Cl)cc1` in this assay. inactive

For this compound, state the assay outcome: `CC(C)c1ccc(C(=O)Nc2sc3c(CN(C)C)c(O)ccc3c2C(N)=O)cc1` active

---

test system: TK-10 renal; test: NCI-60 one-dose screen, 48 h (100 = growth as untreated, 0 = no growth, -100 = all killed); conditions: 10 µM unless noted
This is part of a sample that, as a whole, favours compounds with a hit. Of some 83,000 tested, about 20% had one in any assay.
VALUE KIND: growth (%)
Write the number in % without appending the unit.

COMPOUND: COc1ccc(C2=NN(C(C)=O)C(c3cc(OC)c(OC)c(OC)c3)C2)cc1 (configuration not stated)
growth [%]: 152
--
COMPOUND: O=c1ccn(C2CCCO2)c(=O)[nH]1 (configuration not stated)
growth [%]: 120
--
COMPOUND: O=C(Nc1ccc(Cl)cc1Cl)Nc1ccc(-c2cccnc2)cc1N1CCC(CO)CC1
growth [%]: 52.8
--
COMPOUND: CN1C(=O)C(=Cc2cn(Cc3ccccc3)c3ccc(Br)cc23)C(=O)N(C)C1=O
growth [%]: 58.3
--
COMPOUND: CN(C(=O)c1ccccc1)N(C)C(=O)c1ccccc1
growth [%]: 105
--
COMPOUND: COc1ccc(-c2c3c(nn2-c2ccc(N)cc2)CCc2cnoc2-3)cc1OC
growth [%]: 88.5

Recorded result, `O=C(CCc1nnc(Cn2cncn2)o1)c1nc2ccccc2[nH]1` , growth: 108

growth reading for OC(c1cc(C(F)(F)F)nc2c(C(F)(F)F)cccc12)C1CCCCN1 (configuration not stated) : 11.9

Entry `c1csc([C@@H]2C[C@@H]3Cc4ccc5ccccc5c4N2O3)c1` , growth reported as 88.7

Note to self: growth recorded for O=c1ccn(C2OC(CO)C(O)C2F)c(=O)[nH]1 (configuration not stated) was 124

// recorded growth for `N#CCCCCCn1c2ccccc2c2c3c(c4c5ccccc5[nH]c4c21)C(=O)N(O)C3=O` : 22

Reported growth ( CN(CCOc1ccc(CC2SC(=O)NC2=O)cc1)c1ccccn1 (configuration not stated) ) = 103

Recorded result, `CC(=O)c1ccc2c3c(n(C)c2c1)CCCC3` , growth: 85.4

Reported growth for CSc1ccc2c(c1)N(CCC1CCCCN1C)c1ccccc1S2 (configuration not stated) was 66.4

Kindly note the recorded growth for `N#Cc1ccc(NC(=O)Nc2ccc(Oc3ccc(NC(=O)Nc4ccc(C#N)cc4)cc3)cc2)cc1` , which is 37.9

According to the records, this compound `Cc1c(C(N)=O)sc2ncn(CC(=O)Nc3ccc(Cl)cc3)c(=O)c12` displays growth of 128

Per the record, `Cc1c(C(N)=O)sc2c1C(=O)N(Cc1ccccc1)C1=NN=C(c3ccc(Cl)cc3)CN12` has growth of 59.4

Entry `Clc1ccc([C@@H]2C[C@@H]3Cc4cc(Br)c5ccccc5c4N2O3)c(Cl)c1` — recorded growth = 90.2

# growth of `Cc1ccccc1NC(=O)c1cc2ccccc2cc1O` = 60.1

Notebook: `Cc1nn(-c2ccc(Cl)cc2)c2nc3c(nc12)C(=O)C(=O)c1ccccc1-3` , growth read as 144

The measured growth associated with `COc1cc2cn3c4ccc(O)cc4nc(N)c3c2cc1OC` reads 50.4

For this compound ( `C[n+]1ccc(C#N)c2ccccc21` ), measured growth is 129
